System: HIV-1 IIIB
Details: read-out: EC50 (μM) (M ± SD) for inhibition of p24; HIV-1 IIIB, MT-2 cells
Readout name: EC50

Query EC50 for `CN1C(=O)S/C(=C\c2ccc(-c3cc(C(=O)O)ccc3Cl)o2)C1=O`
> 100 µM

Query EC50 for COC(=O)C(C)N1C(=O)S/C(=C\c2ccc(-c3cc(C(=O)O)ccc3C)o2)C1=O (centres unmarked)
> 100 µM

Query EC50 for `COCCN1C(=O)/C(=C/c2ccc(-c3ccc(Cl)c(C(=O)O)c3)o2)SC1=S`
10.7 µM

Query EC50 for `COC(=O)CN1C(=O)S/C(=C\c2ccc(-c3cc(C(=O)O)ccc3Cl)o2)C1=O`
> 100 µM

Query EC50 for `Cc1ccc(NC(=O)CN2C(=O)S/C(=C\c3ccc(-c4cccc(C(=O)O)c4)o3)C2=O)cc1`
> 100 µM

Query EC50 for `CC(C)CN1C(=O)S/C(=C\c2ccc(-c3ccc(Cl)c(C(=O)O)c3)o2)C1=O`
> 100 µM

Query EC50 for `Cc1cccc(N2C(=O)/C(=C/c3ccc(-c4cccc(C(=O)O)c4)o3)SC2=S)c1`
0.308 µM

Query EC50 for `O=C(O)c1cccc(-c2ccc(/C=C3\SC(=O)N(c4ccc(Cl)cc4)C3=O)o2)c1`
> 100 µM
